measured on: Bcl-xL, Q07817
Sequence (Q07817 1-209): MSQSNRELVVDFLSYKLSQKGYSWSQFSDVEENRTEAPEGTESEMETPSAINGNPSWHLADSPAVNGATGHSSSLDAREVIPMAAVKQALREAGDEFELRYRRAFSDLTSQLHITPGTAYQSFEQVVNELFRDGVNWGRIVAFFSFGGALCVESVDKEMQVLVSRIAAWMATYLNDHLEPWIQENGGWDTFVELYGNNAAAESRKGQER
experiment summary: peptide SPOT array, c-Myc-tagged receptor at 1 uM or 100 nM, anti-c-Myc-Cy3
Label rule, in plain words: SPOT signal as a fraction of Bim BH3's signal on the same receptor and array of 0.08 and up is true, under 0.08 is false.

SPOT signal as a fraction of Bim BH3's signal on the same receptor and array >= 0.08 for TLHFNQRGTWDASGSDDLKVVVWDWV [DCAF8] ?
false

Quick one: VFDDLRGSVSDSWVGDSTGVILVLTT [SORT1]
false

Same question, VIKQRRLPDQLSKLLDRIQLSGRYYL this time
true

Likewise for ERLKGQLCDVLLIVLDQKFRAHKNVL [ZNF295] ?
true

Same lookup for NEEGQQFALKDHRLGRTSFRNLKNKR [RIOK2] , please.
true

Continuing:
SPOT signal as a fraction of Bim BH3's signal on the same receptor and array >= 0.08 for AEVMRQRGINDRYLGKVLELVLRSPA [KIAA0664] ?
true

# repeat for SRQPRDFGDSLARGGKGFLRGVVGGV
true

Then DLSSTFVSLADRKVGDWPLSARREKG [TTC31] ?
true

Same for VAALEQAAYKLDAYSKKLEAKYKKLE [BLOC1S2]
true

Okay, and GFANHDVVEVLRNALQVVHLTLVRRK [INADL] ?
true

Also LGLGELAGLTDANEADSLTYDIANNK [STRN] ?
false

Same thing, different binder: SRQPRDFGDSLARGLKGFLRGVVGGV
true

What about this binder? PPDAHVLGKALEAALQDFSLDLRSTG [CIITA]
false

Next record, please: CGDLASLSIDIWTLGEEVDGRRLVVA [BIRC6]
false

What about this binder? SALETQVAAAVQALLDDYLAQLSLEP [TRO]
false
